Items are presented alongside their recorded protein stability index.
B1: ZNF263 (parent)
chain: QPKKLHLCPLCGKNFSNNSNLIRH

# Variants of: B1
# assayMethodText: protein stability index of a GFP-peptide fusion (GPS, HEK-293T) (PSI 1-6); higher = more stable;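 further: lentivirally expressed fusions sorted by FACS into six bins by GFP to DsRed ratio, PSI derived from sequencing read proportions per bin multiplied by bin number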
# conditionDescription: c terminus: a fixed tail appended
Reply briefly: the number, and no unit.

Worked set:
# sequenceInput, protein stability index
measured = [
    ("QPKKLHLCPSCGKNFSNNSNLIRH", 4.12),
    ("QPKKLHLCPLCGKNFSNNLNLIRH", 2.96),
    ("QPKKLHLCPLCGKNFSNNSNMIRH", 2.48),
]

So, QPKKLHLCPLCGKNFNNNSNLIRH ? Its protein stability index was 2.38

So, QPKKLHLCPLCGKNFSNYSNLIRH ? Its protein stability index was 3.22
